# Tested on: Staphylococcus aureus
# TEST_METHOD_NOTES: Antibacterial activity against Staphylococcus aureus assessed as bacterial growth inhibition preincubated with compound for 15 mins followed by light irradiated with 730 nm, 40 J/cm2 and measured after 24 hrs by broth microdilution method
# Assay type: functional
# TEST_PARAMETERS: light or radiation study, 24.25 h, time 1455 min
Quick reference for MIC among some compounds

- SMILES_STRUCTURE: "C[N+](C)(C)CCCCOc1ccc(-c2c3nc(c(-c4ccc(OCCCC[N+](C)(C)C)cc4)c4[nH]c(c(-c5ccc(OCCCC[N+](C)(C)C)cc5)c5nc(c(-c6ccc(OCCCC[N+](C)(C)C)cc6)c6[nH]c2c2cc7ccccc7cc62)-c2cc6ccccc6cc2-5)c2cc5ccccc5cc42)-c2cc4ccccc4cc2-3)cc1.[Br-].[Br-].[Br-].[Br-]"
  STUDY_TARGET: "Staphylococcus aureus"
  MIC (µM): 16
- SMILES_STRUCTURE: "C[N+](C)(C)CCCOc1ccc(-c2c3nc(c(-c4ccc(OCCC[N+](C)(C)C)cc4)c4[nH]c(c(-c5ccc(OCCC[N+](C)(C)C)cc5)c5nc(c(-c6ccc(OCCC[N+](C)(C)C)cc6)c6[nH]c2c2cc7ccccc7cc62)-c2cc6ccccc6cc2-5)c2cc5ccccc5cc42)-c2cc4ccccc4cc2-3)cc1.[Br-].[Br-].[Br-].[Br-]"
  STUDY_TARGET: "Staphylococcus aureus"
  MIC (µM): 8
- SMILES_STRUCTURE: "C[N+](C)(C)CCCCCOc1ccc(-c2c3nc(c(-c4ccc(OCCCCC[N+](C)(C)C)cc4)c4[nH]c(c(-c5ccc(OCCCCC[N+](C)(C)C)cc5)c5nc(c(-c6ccc(OCCCCC[N+](C)(C)C)cc6)c6[nH]c2c2cc7ccccc7cc62)-c2cc6ccccc6cc2-5)c2cc5ccccc5cc42)-c2cc4ccccc4cc2-3)cc1.[Br-].[Br-].[Br-].[Br-]"
  STUDY_TARGET: "Staphylococcus aureus"
  MIC (µM): 16
- SMILES_STRUCTURE: "CC[N+](C)(CC)CCCCOc1ccc(-c2c3nc(c(-c4ccc(OCCCC[N+](C)(CC)CC)cc4)c4[nH]c(c(-c5ccc(OCCCC[N+](C)(CC)CC)cc5)c5nc(c(-c6ccc(OCCCC[N+](C)(CC)CC)cc6)c6[nH]c2c2cc7ccccc7cc62)-c2cc6ccccc6cc2-5)c2cc5ccccc5cc42)-c2cc4ccccc4cc2-3)cc1.[Br-].[Br-].[Br-].[Br-]"
  STUDY_TARGET: "Staphylococcus aureus"
  MIC (µM): 8
- SMILES_STRUCTURE: "[Br-].[Br-].[Br-].[Br-].c1cc[n+](CCCCCOc2ccc(-c3c4nc(c(-c5ccc(OCCCCC[n+]6ccccc6)cc5)c5[nH]c(c(-c6ccc(OCCCCC[n+]7ccccc7)cc6)c6nc(c(-c7ccc(OCCCCC[n+]8ccccc8)cc7)c7[nH]c3c3cc8ccccc8cc73)-c3cc7ccccc7cc3-6)c3cc6ccccc6cc53)-c3cc5ccccc5cc3-4)cc2)cc1"
  STUDY_TARGET: "Staphylococcus aureus"
  MIC (µM): 32
- SMILES_STRUCTURE: "[Br-].[Br-].[Br-].[Br-].c1cc[n+](CCCCOc2ccc(-c3c4nc(c(-c5ccc(OCCCC[n+]6ccccc6)cc5)c5[nH]c(c(-c6ccc(OCCCC[n+]7ccccc7)cc6)c6nc(c(-c7ccc(OCCCC[n+]8ccccc8)cc7)c7[nH]c3c3cc8ccccc8cc73)-c3cc7ccccc7cc3-6)c3cc6ccccc6cc53)-c3cc5ccccc5cc3-4)cc2)cc1"
  STUDY_TARGET: "Staphylococcus aureus"
  MIC (µM): 32

---

# TEST_METHOD_NOTES: Photophysical property of the compound assessed as singlet oxygen quantum yield by UV-vis spectrophotometric analysis
# Assay type: physicochemical
The entries below are paired with their reported Activity.

- SMILES_STRUCTURE: "C[N+](C)(C)CCCCOc1ccc(-c2c3nc(c(-c4ccc(OCCCC[N+](C)(C)C)cc4)c4[nH]c(c(-c5ccc(OCCCC[N+](C)(C)C)cc5)c5nc(c(-c6ccc(OCCCC[N+](C)(C)C)cc6)c6[nH]c2c2cc7ccccc7cc62)-c2cc6ccccc6cc2-5)c2cc5ccccc5cc42)-c2cc4ccccc4cc2-3)cc1.[Br-].[Br-].[Br-].[Br-]"
  Activity: 0.41
- SMILES_STRUCTURE: "C[N+](C)(C)CCCCCCOc1ccc(-c2c3nc(c(-c4ccc(OCCCCCC[N+](C)(C)C)cc4)c4[nH]c(c(-c5ccc(OCCCCCC[N+](C)(C)C)cc5)c5nc(c(-c6ccc(OCCCCCC[N+](C)(C)C)cc6)c6[nH]c2c2cc7ccccc7cc62)-c2cc6ccccc6cc2-5)c2cc5ccccc5cc42)-c2cc4ccccc4cc2-3)cc1.[Br-].[Br-].[Br-].[Br-]"
  Activity: 0.48
- SMILES_STRUCTURE: "[Br-].[Br-].[Br-].[Br-].c1cc[n+](CCCCCCOc2ccc(-c3c4nc(c(-c5ccc(OCCCCCC[n+]6ccccc6)cc5)c5[nH]c(c(-c6ccc(OCCCCCC[n+]7ccccc7)cc6)c6nc(c(-c7ccc(OCCCCCC[n+]8ccccc8)cc7)c7[nH]c3c3cc8ccccc8cc73)-c3cc7ccccc7cc3-6)c3cc6ccccc6cc53)-c3cc5ccccc5cc3-4)cc2)cc1"
  Activity: 0.52
- SMILES_STRUCTURE: "CC[N+](C)(CC)CCCCOc1ccc(-c2c3nc(c(-c4ccc(OCCCC[N+](C)(CC)CC)cc4)c4[nH]c(c(-c5ccc(OCCCC[N+](C)(CC)CC)cc5)c5nc(c(-c6ccc(OCCCC[N+](C)(CC)CC)cc6)c6[nH]c2c2cc7ccccc7cc62)-c2cc6ccccc6cc2-5)c2cc5ccccc5cc42)-c2cc4ccccc4cc2-3)cc1.[Br-].[Br-].[Br-].[Br-]"
  Activity: 0.56

---

Listed below: Activity values for each entry.
# TEST_METHOD_NOTES: Photophysical property of the compound assessed as fluorescence quantum yield by UV-vis spectrophotometric analysis
# Assay type: physicochemical
VALUE_TYPE: Activity

- SMILES_STRUCTURE: "C[N+](C)(C)CCCCCOc1ccc(-c2c3nc(c(-c4ccc(OCCCCC[N+](C)(C)C)cc4)c4[nH]c(c(-c5ccc(OCCCCC[N+](C)(C)C)cc5)c5nc(c(-c6ccc(OCCCCC[N+](C)(C)C)cc6)c6[nH]c2c2cc7ccccc7cc62)-c2cc6ccccc6cc2-5)c2cc5ccccc5cc42)-c2cc4ccccc4cc2-3)cc1.[Br-].[Br-].[Br-].[Br-]"
  DATA_VALUE: 0.07
- SMILES_STRUCTURE: "CC[N+](C)(CC)CCCCCOc1ccc(-c2c3nc(c(-c4ccc(OCCCCC[N+](C)(CC)CC)cc4)c4[nH]c(c(-c5ccc(OCCCCC[N+](C)(CC)CC)cc5)c5nc(c(-c6ccc(OCCCCC[N+](C)(CC)CC)cc6)c6[nH]c2c2cc7ccccc7cc62)-c2cc6ccccc6cc2-5)c2cc5ccccc5cc42)-c2cc4ccccc4cc2-3)cc1.[Br-].[Br-].[Br-].[Br-]"
  DATA_VALUE: 0.07
- SMILES_STRUCTURE: "CC[N+](C)(CC)CCCCOc1ccc(-c2c3nc(c(-c4ccc(OCCCC[N+](C)(CC)CC)cc4)c4[nH]c(c(-c5ccc(OCCCC[N+](C)(CC)CC)cc5)c5nc(c(-c6ccc(OCCCC[N+](C)(CC)CC)cc6)c6[nH]c2c2cc7ccccc7cc62)-c2cc6ccccc6cc2-5)c2cc5ccccc5cc42)-c2cc4ccccc4cc2-3)cc1.[Br-].[Br-].[Br-].[Br-]"
  DATA_VALUE: 0.07
- SMILES_STRUCTURE: "C[N+](C)(C)CCCCCCOc1ccc(-c2c3nc(c(-c4ccc(OCCCCCC[N+](C)(C)C)cc4)c4[nH]c(c(-c5ccc(OCCCCCC[N+](C)(C)C)cc5)c5nc(c(-c6ccc(OCCCCCC[N+](C)(C)C)cc6)c6[nH]c2c2cc7ccccc7cc62)-c2cc6ccccc6cc2-5)c2cc5ccccc5cc42)-c2cc4ccccc4cc2-3)cc1.[Br-].[Br-].[Br-].[Br-]"
  DATA_VALUE: 0.07
- SMILES_STRUCTURE: "[Br-].[Br-].[Br-].[Br-].c1cc[n+](CCCCOc2ccc(-c3c4nc(c(-c5ccc(OCCCC[n+]6ccccc6)cc5)c5[nH]c(c(-c6ccc(OCCCC[n+]7ccccc7)cc6)c6nc(c(-c7ccc(OCCCC[n+]8ccccc8)cc7)c7[nH]c3c3cc8ccccc8cc73)-c3cc7ccccc7cc3-6)c3cc6ccccc6cc53)-c3cc5ccccc5cc3-4)cc2)cc1"
  DATA_VALUE: 0.08
- SMILES_STRUCTURE: "CC[N+](C)(CC)CCCOc1ccc(-c2c3nc(c(-c4ccc(OCCC[N+](C)(CC)CC)cc4)c4[nH]c(c(-c5ccc(OCCC[N+](C)(CC)CC)cc5)c5nc(c(-c6ccc(OCCC[N+](C)(CC)CC)cc6)c6[nH]c2c2cc7ccccc7cc62)-c2cc6ccccc6cc2-5)c2cc5ccccc5cc42)-c2cc4ccccc4cc2-3)cc1.[Br-].[Br-].[Br-].[Br-]"
  DATA_VALUE: 0.06
